Test system: SpTbr T-box DNA-binding domain (GST fusion);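 further: protein at 200 nM in PBS on universal double-stranded arrays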
Sequence: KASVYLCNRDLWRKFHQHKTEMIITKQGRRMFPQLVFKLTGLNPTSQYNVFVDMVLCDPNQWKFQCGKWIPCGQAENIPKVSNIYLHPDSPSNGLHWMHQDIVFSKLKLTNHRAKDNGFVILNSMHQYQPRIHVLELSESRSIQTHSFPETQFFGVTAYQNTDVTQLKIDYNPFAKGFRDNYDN
Assay: PBM E-score of 8-mer (E-score (dimensionless, -0.5 to 0.5)); higher = stronger binding preference
Conditions: the construct has about 5 more residues each side
Over roughly 33,000 sequences, “E-score (dimensionless, -0.5 to 0.5)” has its median near -0.046; the highest 2% begin near 0.36. The sample holds the highest values, similar sequences and a random draw of the others, so the mix is not that of the screen.
experimental-endpoint: PBM E-score of 8-mer
Form field (numeric): enter value without unit.

CAACTCTG :: 0.225
CTTTCACC :: 0.0179
AATCGCAG :: 0.0391
CACGCCCC :: 0.24
CTTAACAA :: 0.243
GCAACAAC :: 0.0625
CATCGACA :: 0.222
AGTGACAC :: 0.435

Prompt: Item under review: "CAAGGTGG" . Reported PBM E-score of 8-mer?
Completion: 0.311

Prompt: Item under review: "CGTGACAA" . Reported PBM E-score of 8-mer?
Completion: 0.364

Prompt: Item under review: "AACCTCTA" . Reported PBM E-score of 8-mer?
Completion: -0.187

Prompt: Item under review: "GAGAATAC" . Reported PBM E-score of 8-mer?
Completion: -0.0812

Prompt: Item under review: "GTAGCGCA" . Reported PBM E-score of 8-mer?
Completion: -0.148

Prompt: Item under review: "CGTGCGAG" . Reported PBM E-score of 8-mer?
Completion: 0.373

Prompt: Item under review: "GAAGGTGA" . Reported PBM E-score of 8-mer?
Completion: 0.348

====

Tested on: SpTbr T-box DNA-binding domain (GST fusion);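 further: protein at 200 nM in PBS on universal double-stranded arrays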
Sequence: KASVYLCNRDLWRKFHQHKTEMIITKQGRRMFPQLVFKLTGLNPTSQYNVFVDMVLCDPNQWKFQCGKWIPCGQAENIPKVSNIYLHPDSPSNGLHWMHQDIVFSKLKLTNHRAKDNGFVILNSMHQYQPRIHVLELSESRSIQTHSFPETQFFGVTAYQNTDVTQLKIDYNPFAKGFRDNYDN
Assay: PBM E-score of 8-mer (E-score (dimensionless, -0.5 to 0.5)); Tbr is Tbrain of the sea star Patiria miniata (Pm) or the sea urchin Strongylocentrotus purpuratus (Sp); higher = stronger binding preference
Conditions: target sequence: T-box / the construct has about 5 more residues each side
Whole data set: some 33,000 sequences, median “E-score (dimensionless, -0.5 to 0.5)” near -0.046, cut for the highest 2% near 0.36. The list comes from a sample in which the highest values are over-represented; it also holds close analogues and randomly drawn sequences.
Think of 0.3 as a floor: if PBM E-score of 8-mer stands on it or above, it is condition met; beneath it, condition not met.

Example entries and their recorded answers appear below.
ATTGCGAC :: condition not met
CACCTATC :: condition met
GTCGACAC :: condition met
CAATTGAG :: condition not met
ATGCTAAC :: condition not met

Prompt: Is reported PBM E-score of 8-mer greater than or equal to 0.3 here: "TTGCTAAA"
Completion: condition not met

Prompt: Is reported PBM E-score of 8-mer greater than or equal to 0.3 here: "GTGCTAAA"
Completion: condition met

Prompt: Is reported PBM E-score of 8-mer greater than or equal to 0.3 here: "ACGGTTAC"
Completion: condition not met

Prompt: Is reported PBM E-score of 8-mer greater than or equal to 0.3 here: "CCAAGAGC"
Completion: condition not met

Prompt: Is reported PBM E-score of 8-mer greater than or equal to 0.3 here: "CTCACCAC"
Completion: condition not met

Prompt: Is reported PBM E-score of 8-mer greater than or equal to 0.3 here: "ATCACCAC"
Completion: condition not met

Prompt: Is reported PBM E-score of 8-mer greater than or equal to 0.3 here: "CTCCGGCA"
Completion: condition not met

Prompt: Is reported PBM E-score of 8-mer greater than or equal to 0.3 here: "CTGCTAAA"
Completion: condition not met

Prompt: Is reported PBM E-score of 8-mer greater than or equal to 0.3 here: "GTCGACAA"
Completion: condition not met

Prompt: Is reported PBM E-score of 8-mer greater than or equal to 0.3 here: "TACCTATA"
Completion: condition not met

Prompt: Is reported PBM E-score of 8-mer greater than or equal to 0.3 here: "GTGTGTCA"
Completion: condition met

Prompt: Is reported PBM E-score of 8-mer greater than or equal to 0.3 here: "ATCACCTA"
Completion: condition met

Prompt: Is reported PBM E-score of 8-mer greater than or equal to 0.3 here: "ACCAACGA"
Completion: condition not met

Prompt: Is reported PBM E-score of 8-mer greater than or equal to 0.3 here: "CCGCGAAA"
Completion: condition met

Prompt: Is reported PBM E-score of 8-mer greater than or equal to 0.3 here: "CACCTATG"
Completion: condition met

Prompt: Is reported PBM E-score of 8-mer greater than or equal to 0.3 here: "GCGAATAC"
Completion: condition not met

Prompt: Is reported PBM E-score of 8-mer greater than or equal to 0.3 here: "AACCTAGG"
Completion: condition not met

Prompt: Is reported PBM E-score of 8-mer greater than or equal to 0.3 here: "TGAGCGCA"
Completion: condition not met

Prompt: Is reported PBM E-score of 8-mer greater than or equal to 0.3 here: "GACAATTA"
Completion: condition not met

Prompt: Is reported PBM E-score of 8-mer greater than or equal to 0.3 here: "CTCGACAC"
Completion: condition met

Prompt: Is reported PBM E-score of 8-mer greater than or equal to 0.3 here: "ATCGACAC"
Completion: condition met
